Assignment: determine reported IC50 for the given compounds.
Tested on: dl-PGE1-induced contraction of gerbil colon
protocolText: Inhibition of dl-PGE1-Induced Contraction of Gerbil Colon (prostaglandin antagonist action)
Assay type: cell-based, gerbils (Meriones unguiculatus)
testParameters: Meriones unguiculatus, 1 min; 200 ng./ml. dl-PGE1; read-out: ID50 vs. 200 ng. of PGE1/ml.
Answers are plain numbers, in µg/mL.

Please review the following examples before continuing.
| compound | testedOn | unitName | IC50 |
| --- | --- | --- | --- |
| CCCCCC/C=C/[C@H]1CCC(=O)[C@@H]1CCCCCC(CC)C(=O)O (stereo partly drawn) [9-oxo-2-ethyl-13-trans-prostenoic acid, 2-ethyl-9-oxo-13-trans-prostenoic acid] | dl-PGE1-induced contraction of gerbil colon | µg/mL | 15 |
| CCCCCC/C=C/[C@@H]1CCC(=O)[C@H]1CCCCCCC(=O)Oc1cccnc1 (relative stereo) [3-pyridyl 9-oxo-13-trans-prostenoate, 3'-pyridyl 9-oxo-13-trans-prostenoate] | dl-PGE1-induced contraction of gerbil colon | µg/mL | 12 |
| CCCCCC/C=C/[C@@H]1CCC(=O)[C@H]1CCCCSCC(=O)O (relative stereo) [9-oxo-3-thia-13-trans-prostenoic acid] | dl-PGE1-induced contraction of gerbil colon | µg/mL | 20 |

Could you now look at the following compound, please?
GET /values?readout=IC50&item= CCCCCC/C=C/[C@@H]1CCC(=O)[C@H]1CCCCOCC(=O)O (relative stereo) [9-oxo-3-oxa-13-trans-prostenoic acid] 20

====

Assign IC50 to each entry below.
Tested on: dl-PGE1-induced contraction of gerbil colon
protocolText: Inhibition of dl-PGE1-Induced Contraction of Gerbil Colon (prostaglandin antagonist action)
Format: cell-based, gerbils (Meriones unguiculatus)
testParameters: Meriones unguiculatus, 1 min; sub-maximal challenge, 20 ng./ml. dl-PGE1; 50% inhibition of maximum response; read-out: ID50 vs. 20 ng. of PGE1/ml.

Solved entries (count: 3):
| compound | IC50 |
| --- | --- |
| CCCCCC/C=C/[C@@H]1CCCC(=O)[C@H]1CCCCCCC(=O)O (relative stereo) [9-oxo-10a-homo-13-trans-prostenoic acid] | 2.5 to 5 µg/mL |
| CCCCC/C=C/[C@H]1CCC(=O)[C@@H]1CCCCCCC(=O)O (relative stereo) [9-oxo-20-nor-13-trans-prostenoic acid] | 5 µg/mL |
| CCSCCC/C=C/[C@@H]1CCC(=O)[C@H]1CCCCCCC(=O)O (relative stereo) [9-oxo-18-thia-13-trans-prostenoic acid] | 1 µg/mL |

I would be grateful if you could provide IC50 for each of the following entries.
1. O=C(O)CCCC/C=C/[C@@H]1CCC(=O)[C@H]1CCCCCCC(=O)O (relative stereo)
2. CCCCCCC=CC1CCC(C)(O)C1CCCCCCC(=O)O (centres unmarked)

1. 35 µg/mL
2. 2 to 5 µg/mL

====

Test system: dl-PGE1-induced contraction of gerbil colon
protocolText: Inhibition of dl-PGE1-Induced Contraction of Gerbil Colon (prostaglandin antagonist action)
Assay type: cell-based, gerbils (Meriones unguiculatus)
testParameters: Meriones unguiculatus, 1 min; sub-maximal challenge, 20 ng./ml. dl-PGE1; 50% inhibition of maximum response; read-out: ID50 vs. 20 ng. of PGE1/ml.
Provide the reported IC50 of each item.

Worked examples follow.
| compound | IC50 |
| --- | --- |
| O=C(O)CCCCCC[C@@H]1C(=O)CC[C@H]1/C=C/CCCCl (relative stereo) | 1 to 2.5 µg/mL |
| CCCCCCC=CC1CCC(O)C1CCCCC(=O)O (stereo not shown) | 10 to 12 µg/mL |

Hey, can you go through the list below and give me IC50 for every item?
1. CCCCCC/C=C/[C@@H]1CCC(=O)[C@H]1C/C=C\CCCC(=O)O (relative stereo) [9-oxo-5-cis,13-trans-prostadienoic acid, 9-oxo-5-cis-13-trans-prostadienoic acid]
2. CC/C=C\CC/C=C/[C@@H]1CCC(=O)[C@H]1CCCCCCC(=O)O (relative stereo) [9-oxo-13-trans-17-cis-prostadienoic acid]
3. CCCCCCC=CC1CCC(=O)C1CCCCCC(C(=O)O)c1ccccc1 (stereo not drawn) [9-oxo-2-phenyl-13-trans-prostenoic acid]
4. CCCCCC/C=C/[C@@H]1CCC(=O)[C@H]1CCCCC(C)(C)CC(=O)O (relative stereo)
5. CCCCCCC/C=C/[C@@H]1CCC(=O)[C@H]1CCCCCCC(=O)O (relative stereo) [20-methyl-9-oxo-13-trans-prostenoic acid]

0.9 µg/mL
2.5 to 5 µg/mL
5 to 7 µg/mL
1 µg/mL
2 to 2.5 µg/mL
